- Assay info: NCI Yeast Anticancer Drug Screen. Data for the mlh1 rad18 strain (AID 175)
- Condition set: S. cerevisiae mlh1 rad18 strain growth inhibition; at 50.0 µM; hits give high values
About 79,000 compounds went through this panel and 15% of them were active in at least one assay; those are over-represented in the sample as a whole.
Items are presented alongside their recorded growth inhibition.
Give just the numeric value; % need not be written.

Worked set:
CCn1c(=O)c(C#N)c2n(CC)c3ccccc3n2c1=O; 30
Cc1ccc(SSCC(O)C(O)CSSc2ccc(C)cc2)cc1 (centres undefined); 10.1
Clc1ccc2c(N3CCC(CCC4CCN(c5ncnc6cc(Cl)ccc56)CC4)CC3)ncnc2c1; -14.2
O=C1CCC2CCC(=O)N12; 5.65
C1CCCN(/N=N/N2CCCCCC2)CC1; 6.65
S=c1cc(S)sc2c1c(=S)sc1nc3ccccn3c(=S)c12; 45
COC1CCCC2CC3=C(CCCC3)OC21 (centres undefined); -13.5
c1ccc(C2=C([P+](c3ccccc3)(c3ccccc3)c3ccccc3)CCO2)cc1; 98.8

Q: What measured growth inhibition goes with `CC(=O)Oc1cc2oc([O-])c[n+]2c2ccccc12` ?
A: 0.95

Q: Also `O=C(O)c1[nH]c2ccccc2c(=O)c1-c1ccccc1` , if possible.
A: -19.4

Q: Also `O=C1NCC2(CCCCCC2)O1` , if possible.
A: 6.15

Q: Also C[N+]1(C)CCCC(CO)(c2ccccc2)CC1 (centres undefined) , if possible.
A: 7.7

Q: Also `S=c1nc[nH]c2c1cnn2-c1ccccc1` , if possible.
A: 40.2

Q: Also `O=c1cc(O)n2ncnc2[nH]1` , if possible.
A: 9

Q: Also `CC1=C(O)c2cn(C)cc2C(=O)C1=O` , if possible.
A: 28.3

Q: Also `C1CCc2nc3c(nc2C1)CCCC3` , if possible.
A: 7

Q: Also C=C1C2C[C@@H]3OC4CC5O[C@]6(CC5OC4C(C)C3OC(=O)CC3CC[C@@H]4OC5C7OC8C[C@](CCC9CC(=C)[C@H](CCC(C[C@H]1C)O2)O9)(OC7C4O3)O[C@@H]85)C[C@@H]1O[C@@]2(CC(C)[C@@H]3OC(CC(=O)CCO)C(O)C[C@@H]3O2)CC(C)[C@@H]1O6 (some centres undefined) , if possible.
A: 87.3

Q: Also CC(C)COP(C)(=O)C(N)(C(F)(F)F)C(F)(F)F (centres undefined) , if possible.
A: -12.4

Q: Also COC(=O)C(N)CSCSC (centres undefined) , if possible.
A: -5.65

Q: Also O[C@H]1[C@H]2c3cc4c(cc3CN3CCC(C[C@@H]1O)[C@H]23)OCO4 (some centres undefined) , if possible.
A: 9.3

Q: Also `O=C1CN(Cc2ccccc2)CCO1` , if possible.
A: 1.4

Q: Also `Nc1cccn2cnnc12` , if possible.
A: 19.4

Q: Also N#CC1CCCC[N-]1.[NH-]CC[N-]CC[NH-].[Pt+4] (centres undefined) , if possible.
A: 43

Q: Also `O=c1[nH]c(=S)c2[nH]c(=O)n(-c3ccccc3)c2[nH]1` , if possible.
A: -14.7

----------
- Assay info: NCI Yeast Anticancer Drug Screen. Data for the bub3 strain (AID 167)
- Condition set: S. cerevisiae bub3 mutant strain, at 50.0 µM, hits give high values
This is part of a sample that, as a whole, favours compounds with a hit. Of some 79,000 tested, about 15% had one in any assay.
Measurement label: growth inhibition (%)
Give just the numeric value; % need not be written.

Worked set:
COc1ccc(C(CC(=O)O)c2ccc(OC)c(OC)c2)c(OC)c1 (stereo unspecified); -1.6
NC1=Nc2ncccc2C(=O)NN1; 12.7
CCOc1ccccc1NC(=O)/C=C1\NC(=O)CS1; -5.65
CCCCN(CCCC)CC(=O)NC(N)=O; 10.3

Q: What measured growth inhibition goes with `O=NN(CCCl)C(=O)NCc1ccc[n+]([O-])c1` ?
A: 2.2

Q: Also `COC(=O)c1cncc(C(=O)OC)c1` , if possible.
A: 1.95

Q: Also `Cc1ccccc1S(=O)(=O)N1C(=O)c2ccccc2S1(=O)=O` , if possible.
A: 5.15

Q: Also NC(=S)N/N=C1/CC(=O)N(c2ccccc2)C1c1ccccc1 (stereo unspecified) , if possible.
A: 32.4

Q: Also CSCCC(NC(=O)OC(C)(C)C)C(=O)NCCNc1ccc(NCCNC(=O)C(CCSC)NC(=O)OC(C)(C)C)c2c1C(=O)c1ccccc1C2=O (stereo unspecified) , if possible.
A: -9.5

Q: Also `N#Cc1c2c(c(N=P(c3ccccc3)(c3ccccc3)c3ccccc3)n3c1nc1ccccc13)CCCC2` , if possible.
A: 30

Q: Also `CCCCCCCCCCCCSCCSCCC` , if possible.
A: -7.35

----------
- Assay info: NCI Yeast Anticancer Drug Screen. Data for the cln2 rad14 strain (AID 165);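 note: 0% = growth equal to vehicle treated cultures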
- Condition set: S. cerevisiae cln2 rad14 strain, at 50.0 µM, hits give high values
The panel holds about 79,000 compounds, 15% with a hit somewhere; the sample as a whole holds those more often.
Measurement label: growth inhibition (%)
Give just the numeric value; % need not be written.

Worked set:
CCOC(=O)Nc1nc(-c2ccccc2)c(C)s1; -7.1
COCc1c(C)[nH]c2ccc(N(C)C)cc2c1=O; -42
Cc1ccc(C2=Nn3c(nc4sc5c(c4c3=O)CCCC5)SC2)cc1; -5.9

Q: What measured growth inhibition goes with COc1ccc(-n2c(C)nc3c(cnn3C3OC(CO)C(O)C3O)c2=O)cc1 (stereo unspecified) ?
A: -4.15

Q: Also `O=S(=O)(O)CCCCCO` , if possible.
A: -46.8

Q: Also COC(=O)/C(=N/O)C(C(=O)C=C(C)C)C(=O)C(=O)Nc1nc2ccc([N+](=O)[O-])cc2s1 (stereo unspecified) , if possible.
A: -58.8

----------
- Assay info: NCI Yeast Anticancer Drug Screen. Data for the mec2-1 strain (AID 157)
- Condition set: S. cerevisiae mec2-1 strain, at 50.0 µM, hits give high values
The panel holds about 79,000 compounds, 15% with a hit somewhere; the sample as a whole holds those more often.
Measurement label: growth inhibition (%)
Give just the numeric value; % need not be written.

CC(C)(C)CC(CC(C)(C)C)C(=O)O; -1.2

Q: What measured growth inhibition goes with `CCOC(=O)N1C2CC=CCC1C1(c3ccccc3)OC2(c2ccccc2)c2ccccc21` ?
A: -3.95

Q: Also `C[n+]1cc(I)cc2ccccc21` , if possible.
A: -3.45

Q: Also `CC(C)=CCC\C(C)=C/C=C/C(C)=C\C=C\C(C)=C/C=C/C=C(C)\C=C\C=C(C)/C=C/C=C(/C)CCC=C(C)C` , if possible.
A: -30.8

Q: Also CC1CNC(=S)SSC(=S)N1 (stereo not given) , if possible.
A: 26.5

Q: Also COc1ccc2cc(C(C)C(O)c3cc(F)c(F)c(F)c3F)ccc2c1 (stereo not given) , if possible.
A: -30.3

Q: Also `CN1/C(=C\N=O)C(C)(C)N(O)C1(C)C` , if possible.
A: -13.9

Q: Also `O=[N+]([O-])c1ccc(-n2cccc2)cc1` , if possible.
A: 20

Q: Also `CCCCN(C)C(=O)C1=C(C)NC(C)=C(C(=O)N(C)CCCC)C1` , if possible.
A: -26.4

Q: Also `O=C(O)c1ccccc1C(=O)OCc1ccccc1` , if possible.
A: 16.1

Q: Also Cc1cc(-c2cccc3ccccc23)c(C#N)c(=S)n1C1OC(CO)C(O)C(O)C1O (stereo not given) , if possible.
A: 4.4

Q: Also `Cc1ccccc1C(c1ccccc1C)c1ccccc1C` , if possible.
A: 1

Q: Also `CC(=O)Nc1cccc(C)n1` , if possible.
A: -3.2

----------
- Assay info: NCI Yeast Anticancer Drug Screen. Data for the cln2 rad14 strain (AID 165);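 note: 0% = growth equal to vehicle treated cultures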
- Condition set: S. cerevisiae cln2 rad14 strain, at 50.0 µM, hits give high values
About 79,000 compounds went through this panel and 15% of them were active in at least one assay; those are over-represented in the sample as a whole.
Measurement label: growth inhibition (%)
Give just the numeric value; % need not be written.

Worked set:
CCCCCCC(O)C/C=C\CCCCCCCC(=O)O (stereo unspecified); 62.9
COC(=O)c1c(C)oc(C)c1-c1ccc(OCc2ccccc2)c(OC)c1; 7.6
COc1ccc2c(c1)C(=O)C1CC(=O)CCC21 (stereo unspecified); -21.8
CCOC(=O)CCCCN(CC)CCCCC(=O)OCC; -2.25
CCO/C=N/c1oc(-c2ccccc2)nc1C#N; -38.1

Q: What measured growth inhibition goes with CC(=O)OCC(C)(C)C(OC(C)=O)C(C)C (stereo unspecified) ?
A: -46.8

Q: Also `C[CH2][Ge]([CH2]C)[CH2]C.C[CH2][Ge]([CH2]C)[CH2]C.C[CH2][Ge]([CH2]C)[S][Ge]([CH2]C)[CH2]C` , if possible.
A: 40.4

Q: Also COc1ccc(C(C)(O)c2cc3ccccc3n2S(=O)(=O)c2ccccc2)cc1 (stereo unspecified) , if possible.
A: -14.3

Q: Also `CCCCn1c(=O)cc(C(=O)O)c2ccccc21` , if possible.
A: -9.25

Q: Also Cc1ccccc1N(CCC#N)C1=NN(C(=O)CC(=O)Nc2ccc(Cl)cc2)C(c2ccccc2)C1 (stereo unspecified) , if possible.
A: 15

Q: Also CC1(C)OC2COC(c3[nH]nc4c(=O)[nH]c(=O)[nH]c34)C2O1 (stereo unspecified) , if possible.
A: -20.8
